Target sequence: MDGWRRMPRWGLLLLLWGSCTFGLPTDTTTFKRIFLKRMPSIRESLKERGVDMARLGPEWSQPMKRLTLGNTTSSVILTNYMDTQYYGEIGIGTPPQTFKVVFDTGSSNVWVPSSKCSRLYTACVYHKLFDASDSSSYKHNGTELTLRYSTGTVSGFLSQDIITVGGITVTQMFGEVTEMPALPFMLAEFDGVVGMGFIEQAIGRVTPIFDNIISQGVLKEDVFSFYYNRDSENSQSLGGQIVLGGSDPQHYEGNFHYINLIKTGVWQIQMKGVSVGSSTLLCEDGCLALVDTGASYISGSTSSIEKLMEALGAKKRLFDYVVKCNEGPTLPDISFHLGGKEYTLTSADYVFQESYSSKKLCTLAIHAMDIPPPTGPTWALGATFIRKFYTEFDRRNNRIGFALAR
Literature-derived IC50 for the protein given by its sequence follows.
Only the number, expressed in µM, is required.

molecule | measured.metric | display.unit | reported.result
CC(C)CCNC(=O)C1(C[C@H](O)[C@H](CC2CCCCC2)NC(=O)[C@H](C)NC(=O)[C@H](Cc2ccccc2)NC(=O)OC(C)(C)C)CO1 (stereo partly drawn) | IC50 | µM | 0.025

Prompt line: Could you tell me which IC50 is on file for `CC(C)CNC(=O)[C@@](O)(CN=[N+]=[N-])C[C@H](O)[C@H](CC1CCCCC1)NC(=O)[C@H](Cc1cnc[nH]1)NC(=O)[C@H](Cc1ccccc1)NC(=O)OC(C)(C)C` ?
Response line: 0.02

Prompt line: Could you tell me which IC50 is on file for `CCCCNC(=O)[C@H](C)C[C@H](O)[C@@H](N)CC1CCCCC1` ?
Response line: 30

Prompt line: Could you tell me which IC50 is on file for CNC(=O)[C@H](CC(C)C)NC(=O)C(Cc1c[nH]c2ccccc12)NC(=O)[C@H](CCCCN)N1C(=O)CC[C@@H](NC(=O)OCc2ccccc2)C(=O)N[C@H](Cc2ccccc2)C1=O (stereo in doubt) ?
Response line: 0.34

###

Literature-derived IC50 for Renin (Homo sapiens) follows.
Molecular target: Renin (Homo sapiens)
Sequence (P00797 whole entry): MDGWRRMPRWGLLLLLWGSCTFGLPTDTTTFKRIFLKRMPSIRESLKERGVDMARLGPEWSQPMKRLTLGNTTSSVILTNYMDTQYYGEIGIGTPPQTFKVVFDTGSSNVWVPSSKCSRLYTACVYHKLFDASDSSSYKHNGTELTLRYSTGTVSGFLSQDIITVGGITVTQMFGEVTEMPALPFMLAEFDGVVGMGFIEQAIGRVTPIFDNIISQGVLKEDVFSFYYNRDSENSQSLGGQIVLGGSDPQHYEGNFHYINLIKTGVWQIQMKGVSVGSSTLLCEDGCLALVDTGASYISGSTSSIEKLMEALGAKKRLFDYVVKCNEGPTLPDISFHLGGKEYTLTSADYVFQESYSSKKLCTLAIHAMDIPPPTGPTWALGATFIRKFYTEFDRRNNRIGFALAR

// solved cases for IC50 follow
smiles.notation | reported.result
CCCCNS(=O)(=O)C[C@H](O)[C@H](O)[C@H](CC1CCCCC1)NC(=O)CCc1cnc[nH]1 | > 1000 µM
CC(C)[C@@H](NC(=O)[C@]12CCC(C)(C)C[C@@H]1C1=CC[C@@H]3[C@@](C)(CC(=O)O)[C@H](C(C)(C)C(=O)O)CC[C@@]3(C)[C@]1(C)CC2)C(=O)O | > 1660 µM
C[C@@]1(c2cc(NC(=O)c3ccc(C#N)cn3)ccc2F)C[C@@H](C(F)(F)F)OC(N)=N1 | > 200 µM

Prompt line: Could you tell me which IC50 is on file for `CCCCNS(=O)(=O)C[C@@H](O)[C@H](O)[C@H](CC1CCCCC1)NC(=O)[C@@H](O)CC(C)C` ?
Response line: > 1000 µM
